Catalogue of PPAR gamma mRNA readings, one per entry.
System: PPARγ
TEST PROTOCOL: PPARγ mRNA expression in adipocytes (real-time PCR)
Type: cell-based, human
CONDITION SET: differentiating adipocytes transfected with oligomeric compound; Table 75
In the oligonucleotide strings, read from the 5' end, every base follows the letter of its sugar. An asterisk marks phosphorothioate; unmarked linkages are phosphodiester. Other units and linkages are bracketed, terminal groups are in braces. A string of capitals states the bases alone. e = 2'-O-(2-methoxyethyl) (MOE); [5mC] = 5-methylcytosine

- SUBSTANCE: "346692 (UAAACGGAACCACUAGUGACUUG; all 2'-MOE, all phosphorothioate, methylation of C and T or U not given here) [compound 346692]"
  PPAR gamma mRNA: "28 percentage of untreated control (UTC)"

Answer with the recorded PPAR gamma mRNA for the substance listed here: 341799 (antisense ACCUAAUAUAUCAAACAUAUCA; all 2'-MOE, all phosphorothioate, methylation of C and T or U not given here) [compound 341799]
89 percentage of untreated control (UTC)

Answer with the recorded PPAR gamma mRNA for the substance listed here: 344340 (UGUCCGUGGUUCUACCCUGUGGUA; all 2'-MOE, all phosphorothioate, methylation of C and T or U not given here) [compound 344340]
67 percentage of untreated control (UTC)

Answer with the recorded PPAR gamma mRNA for the substance listed here: 340358 (antisense CAGCUAUGCCAGCAUCUUGCC; all 2'-MOE, all phosphorothioate, methylation of C and T or U not given here) [compound 340358]
42 percentage of untreated control (UTC)

Answer with the recorded PPAR gamma mRNA for the substance listed here: 327962 (antisense eG*e[5mC]*eT*eG*eA*eG*eA*eG*eT*eG*eT*eA*eG*eG*eA*eT*eG*eT*eT*eT*eA*e[5mC]*eA) [compound 327962]
80 percentage of untreated control (UTC)

Answer with the recorded PPAR gamma mRNA for the substance listed here: 341804 (antisense ATCTGCACTGTCAGCACTTT; all 2'-MOE, all phosphorothioate, methylation of C not given here) [compound 341804]
71 percentage of untreated control (UTC)

Answer with the recorded PPAR gamma mRNA for the substance listed here: 346907 (AUGUAUGUGGGACGGUAAACCA; all 2'-MOE, all phosphorothioate, methylation of C and T or U not given here) [compound 346907]
51 percentage of untreated control (UTC)

Answer with the recorded PPAR gamma mRNA for the substance listed here: 327961 (antisense eG*eG*eG*eG*eT*eA*eT*eT*eT*eG*eA*e[5mC]*eA*eA*eA*e[5mC]*eT*eG*eA*e[5mC]*eA) [compound 327961]
95 percentage of untreated control (UTC)

Answer with the recorded PPAR gamma mRNA for the substance listed here: 328137 (eG*eT*eA*eA*eG*e[5mC]*eG*e[5mC]*eA*eG*e[5mC]*eT*e[5mC]*e[5mC]*eA*e[5mC]*eA*eG*eG*e[5mC]*eT; anti-miR) [compound 328137]
36 percentage of untreated control (UTC)

Answer with the recorded PPAR gamma mRNA for the substance listed here: 344614 (CCAGCAGCACCUGGGGCAGU; all 2'-MOE, all phosphorothioate, methylation of C and T or U not given here) [compound 344614]
86 percentage of untreated control (UTC)

----------
System: adipocytes
TEST PROTOCOL: Triglyceride accumulation assay in adipocytes
Type: cell-based, human
CONDITION SET: differentiating adipocytes transfected with oligomeric compound; Table 75
In the oligonucleotide strings, read from the 5' end, every base follows the letter of its sugar. An asterisk marks phosphorothioate; unmarked linkages are phosphodiester. Other units and linkages are bracketed, terminal groups are in braces. A string of capitals states the bases alone. e = 2'-O-(2-methoxyethyl) (MOE); [5mC] = 5-methylcytosine
MEASURED QUANTITY: TG (triglyceride accumulation)

Worked examples follow.
- SUBSTANCE: "328100 (antisense eA*eA*eT*e[5mC]*eT*e[5mC]*eT*eG*e[5mC]*eA*eG*eG*e[5mC]*eA*eA*eA*eT*eG*eT*eG*eA) [compound 328100]"
  MEASURED QUANTITY: "TG (triglyceride accumulation)"
  RESULT: "20 percentage of untreated control (UTC)"
- SUBSTANCE: "328106 (antisense eA*eT*eT*eG*eA*eT*eG*e[5mC]*eG*e[5mC]*e[5mC]*eA*eT*eT*eT*eG*eG*e[5mC]*e[5mC]*eT*eA) [compound 328106]"
  MEASURED QUANTITY: "TG (triglyceride accumulation)"
  RESULT: "70 percentage of untreated control (UTC)"
- SUBSTANCE: "328115 (antisense eA*eG*eA*eA*eG*eG*eT*eG*eG*eG*eG*eA*eG*e[5mC]*eA*eG*e[5mC]*eG*eT*e[5mC]*eA) [compound 328115]"
  MEASURED QUANTITY: "TG (triglyceride accumulation)"
  RESULT: "53 percentage of untreated control (UTC)"

Next:
Answer with the recorded TG (triglyceride accumulation) for the substance listed here: 328099 (antisense eA*eA*eG*eA*eA*e[5mC]*eA*eT*eT*eA*eA*eG*e[5mC]*eA*eT*e[5mC]*eT*eG*eA*e[5mC]*eA) [compound 328099]
57 percentage of untreated control (UTC)
